target: Nonstructural protein 3 (Zika virus, UniProt A0A024AXB9)
Sequence (A0A024AXB9 whole entry): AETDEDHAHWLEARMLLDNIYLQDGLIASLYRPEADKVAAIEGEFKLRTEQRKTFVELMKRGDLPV
Positions of bridges follow the written chain, without caps; N, C: chain ends. Non-standard residues stand in square brackets, D forms with d. Residues, ends and D or L forms follow the SMILES beside them. NMeY = CN[C@@H](Cc1ccc(O)cc1)C(=O)O; NMeF = CN[C@@H](Cc1ccccc1)C(=O)O; NMeS = CN[C@@H](CO)C(=O)O; Sar = CNCC(=O)O
Each item that follows carries a reported Kd.
# output: bare number, implied unit nM

These solved cases illustrate the format of a correct answer.
CC(C)C[C@@H]1NC(=O)[C@H]([C@@H](C)O)NC(=O)[C@H](Cc2ccc(O)cc2)NC(=O)CSC[C@@H](C(N)=O)NC(=O)[C@H](Cc2ccccc2)NC(=O)[C@H](Cc2ccccc2)NC(=O)[C@H]([C@@H](C)O)NC(=O)CN(C)C(=O)[C@H](CC(N)=O)NC(=O)[C@H](Cc2cnc[nH]2)NC(=O)[C@H](Cc2ccccc2)NC(=O)[C@@H]2CCCN2C1=O ({CH2CO}-YTLPFHN[Sar]TFFC-NH2; thioether N-12)
5
COc1ccc(C[C@H]2C(=O)N[C@@H](CCCCN)C(=O)N(C)[C@@H](Cc3ccccc3)C(=O)N[C@@H](CCCCN)C(=O)N(C)[C@@H](CO)C(=O)N(C)[C@@H](Cc3ccc(OC)cc3)C(=O)N[C@@H](CCCCN)C(=O)N(C)[C@@H](Cc3ccc(OC)cc3)C(=O)N(C)[C@@H](Cc3ccc(OC)cc3)C(=O)N[C@@H](CCCCN)C(=O)N[C@H](C(N)=O)CSCC(=O)N[C@@H](Cc3ccc(O)cc3)C(=O)N2C)cc1 ({CH2CO}-Y[NMeY](Me)K[NMeF]K[NMeS][NMeY](Me)K[NMeY](Me)[NMeY](Me)KC-NH2; thioether N-12)
9
COc1ccc(C[C@H]2C(=O)N[C@@H](Cc3ccccc3)C(=O)N[C@H](C(N)=O)CSCC(=O)N[C@@H](Cc3ccc(O)cc3)C(=O)N[C@@H]([C@@H](C)O)C(=O)N[C@@H](CC(N)=O)C(=O)N[C@@H](Cc3ccccc3)C(=O)N[C@@H](Cc3ccc(O)cc3)C(=O)N[C@@H](CC(C)C)C(=O)N[C@@H](Cc3ccc(O)cc3)C(=O)N3CCC[C@H]3C(=O)N[C@@H](Cc3ccc(O)cc3)C(=O)N2C)cc1 ({CH2CO}-YTNFYLYPY[NMeY](Me)FC-NH2; thioether N-12)
8

# input for lookup
# value of Kd, Nonstructural protein 3 (Zika virus, UniProt A0A024AXB9), item CC[C@H](C)[C@@H]1NC(=O)[C@H](CC(N)=O)NC(=O)[C@H](C(C)C)NC(=O)[C@H](CC(C)C)NC(=O)[C@H]([C@@H](C)O)NC(=O)[C@H](CC(N)=O)NC(=O)[C@H](Cc2ccc(OC)cc2)N(C)C(=O)[C@H]([C@@H](C)CC)NC(=O)[C@H](CCCCN)NC(=O)[C@H](Cc2c[nH]c3ccccc23)NC(=O)[C@H](Cc2ccc(O)cc2)NC(=O)CSC[C@@H](C(N)=O)NC1=O ({CH2CO}-YWKI[NMeY](Me)NTLVNIC-NH2; thioether N-12) = 20
